Measured values drawn from paper PMC5540273 for this set.

Listing of recorded %Inh by entry.
Test system: MRCKB;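 further: KINOMEscan kinase panel screen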
Construct: gene CDC42BPB
Details: concentration: 1 μM, replicates: in singlicate; n = 1
readout_kind: %Inh (%)

{"compound": "Cc1c(Cn2c(C)c(C)n3c(=O)cc(N4CCOCC4)nc23)cccc1C(F)(F)F", "readout_kind": "%Inh", "recorded_value": 6}
{"compound": "O=C(Nc1n[nH]c2nc(-c3cccs3)c(Br)cc12)C1CCCC1", "readout_kind": "%Inh", "recorded_value": 0}
{"compound": "Cc1ccccc1Cn1ccn2c(=O)cc(N3CCOCC3)nc12", "readout_kind": "%Inh", "recorded_value": 0}
{"compound": "Cc1ccc(NC(=O)Nc2ccccc2F)cc1-c1ccc(C(=O)Nc2ccncc2)cc1", "readout_kind": "%Inh", "recorded_value": 30}
{"compound": "O=C1NC(=O)C(c2ccc(Cl)cc2)=C1Nc1ccc(O)cc1", "readout_kind": "%Inh", "recorded_value": 0}
{"compound": "COc1ccc(Nc2nccc(N3CCC(NC(=O)C(C)c4ccc(Cl)cc4)CC3)n2)cc1 (stereo not drawn)", "readout_kind": "%Inh", "recorded_value": 0}
{"compound": "O=C(Nc1n[nH]c2cc(-c3ccsc3)ccc12)C1CC1", "readout_kind": "%Inh", "recorded_value": 0}
{"compound": "CC(C)c1cc(-c2ccc3c(N)n[nH]c3c2)nc(N)n1", "readout_kind": "%Inh", "recorded_value": 0}
{"compound": "Cc1ccc(NC(=O)Nc2ccccc2)cc1-c1ccc(C(=O)Nc2ccncc2)cc1", "readout_kind": "%Inh", "recorded_value": 24}
{"compound": "CNC(=O)c1ccc(C)c(-n2c(C)cc(OCc3ccc(F)cc3F)c(Br)c2=O)c1", "readout_kind": "%Inh", "recorded_value": 8}
{"compound": "COc1ccc(CSc2nnc(-c3ccc4c(c3)CCO4)o2)cc1", "readout_kind": "%Inh", "recorded_value": 0}
{"compound": "O=c1cc(N2CCOCC2)nc2n(Cc3cccc(Cl)c3Cl)c3ccccc3n12", "readout_kind": "%Inh", "recorded_value": 14}
{"compound": "CC(=O)c1cccc(NC(=O)NC2CCN(c3ccnc(Nc4ccc(F)cc4)n3)C2)c1 (stereo not drawn)", "readout_kind": "%Inh", "recorded_value": 0}
{"compound": "COc1ccc(Nc2nccc(N3CCC(NC(=O)C(C)c4ccc(Cl)cc4)C3)n2)cc1 (stereo not drawn)", "readout_kind": "%Inh", "recorded_value": 2}
{"compound": "c1ccc(-c2ccnc3[nH]ccc23)cc1", "readout_kind": "%Inh", "recorded_value": 0}
{"compound": "COc1cc2ncnc(Nc3cccc(Br)c3)c2cc1OC.Cl", "readout_kind": "%Inh", "recorded_value": 0}
{"compound": "COc1nccc(-c2c(-c3ccc(F)cc3)ncn2CCCN2CCOCC2)n1", "readout_kind": "%Inh", "recorded_value": 0}
{"compound": "Fc1ccc(-c2nn3cccc(F)c3c2-c2ccncc2)cc1", "readout_kind": "%Inh", "recorded_value": 34}
{"compound": "CCc1ccc(-c2ccc3c(c2)-c2n[nH]cc2S(=O)(=O)N3C)cc1", "readout_kind": "%Inh", "recorded_value": 6}
{"compound": "Fc1ccc(-c2nc[nH]c2-c2ccncc2)cc1", "readout_kind": "%Inh", "recorded_value": 27}
{"compound": "COc1ccc(Nc2nccc(-c3ccc(NC(=O)c4cc5cc(F)ccc5[nH]4)cc3)n2)cc1", "readout_kind": "%Inh", "recorded_value": 0}
{"compound": "CCn1c(-c2ccccc2)nc2cnccc21", "readout_kind": "%Inh", "recorded_value": 14}
{"compound": "CNc1nc(-c2ccc3c(N)n[nH]c3c2)cc(N2C[C@@H](C(=O)NC3CCCCC3)OC[C@H]2C)n1", "readout_kind": "%Inh", "recorded_value": 0}
{"compound": "COC(=O)c1cccc(NC(=O)NC2CCN(c3ccnc(Nc4ccc(OC)cc4)n3)C2)c1 (stereo not drawn)", "readout_kind": "%Inh", "recorded_value": 0}
{"compound": "Cn1cncc1-c1cc2c(Nc3ccc(OCc4ccccc4)cc3)ncnc2cn1", "readout_kind": "%Inh", "recorded_value": 0}
{"compound": "COc1ccc(Nc2nccc(N3CCC(NC(=O)c4cc5ccccc5s4)C3)n2)cc1 (stereo not drawn)", "readout_kind": "%Inh", "recorded_value": 0}
{"compound": "O=C(Nc1n[nH]c2nc(-c3ccco3)c(Br)cc12)C1CCN(Cc2ccccc2)C1.O=C(O)[C@H](O)[C@@H](O)C(=O)O (stereo not drawn)", "readout_kind": "%Inh", "recorded_value": 0}
{"compound": "Cc1cccc2c(-c3ccncn3)c(-c3ccc(F)cc3)nn12", "readout_kind": "%Inh", "recorded_value": 0}
{"compound": "COc1cccc(C2=C(Nc3cc(Cl)c(O)c(Cl)c3)C(=O)NC2=O)c1", "readout_kind": "%Inh", "recorded_value": 3}
{"compound": "Cc1cnc(N)c(/C=C/c2cncc(C(=O)NCCc3ccc(Cl)cc3Cl)c2)c1.Cl", "readout_kind": "%Inh", "recorded_value": 2}
{"compound": "COc1cccc(NC(=O)Nc2ccc(C)c(-c3ccc(C(=O)Nc4ccncc4)cc3)c2)c1", "readout_kind": "%Inh", "recorded_value": 3}
{"compound": "COC(=O)C(NC(=O)NC1CCN(c2ccnc(Nc3ccc(F)cc3)n2)C1)c1ccccc1 (stereo not drawn)", "readout_kind": "%Inh", "recorded_value": 0}
{"compound": "CNCc1ccc2nc(NC(=O)c3ccc(C(C)(C)C)cc3)cn2c1", "readout_kind": "%Inh", "recorded_value": 14}
{"compound": "FC(F)(F)c1ccccc1-c1cc(-c2c[nH]nc2-c2ccccn2)ccn1", "readout_kind": "%Inh", "recorded_value": 0}
{"compound": "COc1ccc(Nc2nccc(NCCNC(=O)Nc3cc(C)ccc3C)n2)cc1", "readout_kind": "%Inh", "recorded_value": 0}
{"compound": "O=C(Nc1n[nH]c2nc(-c3cccs3)c(Br)cc12)C1CC1", "readout_kind": "%Inh", "recorded_value": 0}
